# Tested on: coenzyme-binding glucose dehydrogenase
# EXPERIMENTAL DETAILS: Substrate specificity and Km value, Enzymatic activity measurement method 1
# Format: biochemical, Aspergillus terreus
# ASSAY CONDITIONS: substrate 333 mM final; activity on D-glucose = 100%
// values below are reported Relative activity (%)

These solved cases illustrate the format of a correct answer.
OCC(O)CO; 0.1> %
O=C[C@H](O)[C@H](O)[C@H](O)CO; 0.1> %
O=C[C@H](O)[C@@H](O)[C@@H](O)CO; 0.1> %
C[C@H](O)[C@H](O)[C@@H](O)[C@@H](O)C=O; 0.1> %
O=P(O)(O)O[C@H]1O[C@H](CO)[C@@H](O)[C@H](O)[C@H]1O [D-Glucose-1-phosphate]; 0.1> %

Q: Note Relative activity (%) for the molecule shown: OC[C@H]1O[C@@H](O[C@H]2[C@H](O)[C@@H](O)C(O)O[C@@H]2CO)[C@H](O)[C@@H](O)[C@H]1O (stereo partly drawn)
A: 0.1> %

* * *

// values below are reported Inhibition (%)
# Test system: coenzyme-binding glucose dehydrogenase
# EXPERIMENTAL DETAILS: Inhibitor test, additives added to Enzymatic activity measurement method 1
# Assay type: biochemical, Aspergillus terreus
Phrase the answer as number then unit, nothing more needed.

These solved cases illustrate the format of a correct answer.
O=C(O)CI [Iodoacetic acid]; 9.5%
[Cl-].[Cl-].[Zn+2] [ZnCl2]; 0%
OO [H2O2]; 1.7%
[Cl][Ni][Cl] [NiCl2]; 16.5%
[Cl][Cu][Cl] [CuCl2]; 100%
[Cl-].[Cl-].[Mg+2] [MgCl2]; 2.8%

Q: Note Inhibition (%) for the compound shown: O=[N+]([O-])[O-].[Ag+] [AgNO3]
A: 99.4%

* * *

# Tested on: coenzyme-binding glucose dehydrogenase
# EXPERIMENTAL DETAILS: Substrate specificity and Km value, Enzymatic activity measurement method 1
# Type: biochemical, Aspergillus terreus
# ASSAY CONDITIONS: substrate 333 mM final; activity on D-glucose = 100%
# Protocol: Employing each of D-glucose and other substrates (each at 333 mM as a final concentration, except for D-cellobiose at 193 mM, D-trehalose and D-raffinose at 121 mM), the enzymatic activity of this enzyme was measured by the Enzymatic activity measurement method 1. […] Similarly, the relative reactivities (enzymatic activity) on D-glucose and maltose each at two final concentrations, i.e. 550 mM and 100 mM, were measured. […]
PROPERTY MEASURED: Relative activity (%)
Respond numerically; units are % and should not be typed.

OC[C@H]1O[C@H](O[C@H]2[C@H](O)[C@@H](O)[C@H](O)O[C@@H]2CO)[C@H](O)[C@@H](O)[C@@H]1O; 1.4

Proceeding to the next compound to report its Relative activity (%).
Q: Note Relative activity (%) for the compound shown: O=C[C@H](O)[C@@H](O)[C@H](O)CO
A: 9.1

* * *

# Tested on: coenzyme-binding glucose dehydrogenase
# EXPERIMENTAL DETAILS: Inhibitor test, additives added to Enzymatic activity measurement method 1
# Format: biochemical, Aspergillus terreus
PROPERTY MEASURED: Inhibition (%)
Respond numerically; units are % and should not be typed.

These solved cases illustrate the format of a correct answer.
[Ca+2].[Cl-].[Cl-] [CaCl2]; 5.7
O=S(=O)([O-])c1cc(O)c(O)c(S(=O)(=O)[O-])c1.[Na+].[Na+] [Tirone]; 2.5
[Cl][Pb][Cl] [PbCl2]; 2.7
[N-]=[N+]=[N-].[Na+] [NaN3]; 0
[Cl][Fe]([Cl])[Cl] [FeCl3]; 25.0
[Cl][Sn][Cl] [SnCl2]; 45.5
NN=C(N)N.O=S(=O)(O)O [Aminoguanidine sulfate]; 1.1
Oc1cccc2cccnc12 [8-Quinolinol]; 13.9
[Cl-].[Na+] [NaCl]; 2.5
[Cl][Al]([Cl])[Cl] [AlCl3]; 0

Q: Note Inhibition (%) for the molecule shown: O=C(O)CN(CCN(CC(=O)O)CC(=O)O)CC(=O)O [EDTA]
A: 0.4

Q: Note Inhibition (%) for the molecule shown: [Cl][Cd][Cl] [CdCl2]
A: 0.8

Q: Note Inhibition (%) for the molecule shown: O=C(O)c1ccccc1 [Benzoic acid]
A: 0
